Here the recorded melting point is given for each entry.

- Molecule: "COc1ccccc1/C=C/C(=O)c1ccc2c(c1)nc(-c1cc(OC)c(OC)c(OC)c1)n2C [Compound 7i]"
  melting point: "176 to 178 °C"
- Molecule: "COc1ccc(-c2nc3cc(C(=O)/C=C/c4cc(OC)c(OC)c(OC)c4)ccc3n2C)cc1OC [Compound 7f]"
  melting point: "127 to 129 °C"

Now, please, on to the next molecule.
Notebook: COc1ccccc1/C=C/C(=O)c1ccc2c(c1)nc(-c1ccc(OC)c(OC)c1)n2C [Compound 7c] , melting point read as 159 to 161 °C
